biological target: T1, natural Fel d1 (Indoor Biotech, #NA-FD1-2) (cat, UniProt P30438 23-92; P30440 18-109); experiment: SPR (Biacore), mAb captured, natural Fel d1 injected, 25 C;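 further: rate constants obtained by fitting association and dissociation phases to a one-to-one binding model, with Kd and half-life derived from those rate constants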
T1 construct: Bought natural heterodimeric glycoprotein, chains linked by disulfide bonds; also called nFel d1; nFel d 1
T1 sequence (P30438 other isoform, or with tags, fused parts or gaps, chain 1 of 2): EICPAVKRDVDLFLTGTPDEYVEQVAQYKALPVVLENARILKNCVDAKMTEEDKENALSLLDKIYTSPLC
T1 sequence (P30440 18-109, chain 2 of 2): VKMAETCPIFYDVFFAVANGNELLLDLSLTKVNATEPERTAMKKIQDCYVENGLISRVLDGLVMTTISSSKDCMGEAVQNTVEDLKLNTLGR
measuredQuantity: kon (M⁻¹ s⁻¹)
Answers are plain numbers, in M⁻¹ s⁻¹.

* H4H1232N (antibody, human IgG4, V domains shown, human IgG4 Fc (H4H prefix)) VH: EVQLVESGGGLVKPGGSLRLSCAASGFTFRNYNINWVRQAPGKGLEWVSLISGSSSYIYYADSVKGRFTVSRDNAKNSLYLQMNSLRAEDTAVYYCARRTLSYYVMDVWGQGTTVTVSS VL: DIQVTQSPSPLSASVGDRVTITCRASQGISNYLAWYQQKPGRVPQLLIYAASTLQSGVPSRFSGSGSGTDFTLTISSLQPEDVATYYCQKYNSAPYTFGQGTKLEIK | 1.6e+06

# ---- query binder ----
Q: Given the entry H2M1242N (antibody, mouse IgG2, V domains shown, chimeric: human variable domains, mouse IgG2 Fc (H2M prefix)) VH: EVQLVESGGGLVRPGGSLRLSCAASGFTFTSYAMNWVRQAPGKGLEWVSSISSYSSYIYIADSVKGRFTLSRDNAKNSLYLQMHSLRPEDTAVYFCAREGYSAYSYFDFWGRGTLVTVSS VL: DIQMTQSPSTLSASVGDRVTITCRASQSVISWLAWYQQKPGKAPKLLIHRASSLESGVPSRFSGSGSGTEFTLTISGLQPDDFATYYCQQYNTYFPTFGQGTKVEVK , report its measured kon.
Result: 192000

Data provenance is patent US20220025029A1.
